Data provenance: paper PMC7450057

The entries below come with measured activity at 0.0016 µM values attached.
target: BTK (Homo sapiens, UniProt Q06187); test: In vitro BTK kinase assay (PhosphoSens); type: biochemical; parameters: purchased SignalChem B10-10H-10; conditions: Supplementary Figure 5; drug concentration 1600 pM; replicates; read-out: Inhibition(%)
Sequence (Q06187 whole entry): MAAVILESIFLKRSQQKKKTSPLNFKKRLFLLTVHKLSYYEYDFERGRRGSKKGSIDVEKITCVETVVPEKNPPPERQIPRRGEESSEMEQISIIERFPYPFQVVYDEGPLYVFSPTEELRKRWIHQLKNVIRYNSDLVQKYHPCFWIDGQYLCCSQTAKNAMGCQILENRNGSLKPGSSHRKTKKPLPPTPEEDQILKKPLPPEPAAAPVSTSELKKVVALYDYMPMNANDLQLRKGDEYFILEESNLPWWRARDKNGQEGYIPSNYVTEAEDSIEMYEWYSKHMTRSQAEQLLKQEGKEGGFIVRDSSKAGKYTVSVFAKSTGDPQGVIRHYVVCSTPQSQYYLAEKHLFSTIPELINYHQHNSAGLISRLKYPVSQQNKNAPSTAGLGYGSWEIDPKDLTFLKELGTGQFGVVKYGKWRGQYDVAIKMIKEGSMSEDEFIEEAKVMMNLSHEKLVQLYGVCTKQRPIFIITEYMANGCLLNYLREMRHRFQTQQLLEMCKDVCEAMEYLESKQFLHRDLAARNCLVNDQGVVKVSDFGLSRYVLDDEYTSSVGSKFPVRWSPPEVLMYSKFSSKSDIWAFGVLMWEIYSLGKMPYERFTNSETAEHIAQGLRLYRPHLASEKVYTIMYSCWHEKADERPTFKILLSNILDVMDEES
MEASURE NAME: activity at 0.0016 µM (%)

>  <COMPOUND>
CN1C(=O)CCC(N2C(=O)c3cccc(NCC(=O)NCCCN(C)C(C)(C)C=C(C#N)C(=O)N4CCCC(n5nc(-c6ccc(Oc7ccccc7)cc6)c6c(N)ncnc65)C4)c3C2=O)C1=O (stereo not drawn)

>  <MEASURED>
88.3

$$$$
>  <COMPOUND>
CCC(=O)N1CCCC(n2nc(-c3ccc(Oc4ccccc4)cc3)c3c(N)ncnc32)C1 (stereo not drawn)

>  <MEASURED>
83.1

$$$$
>  <COMPOUND>
CN(CCCNC(=O)CNc1cccc2c1C(=O)N(C1CCC(=O)NC1=O)C2=O)CCCC(=O)N1CCCC(n2nc(-c3ccc(Oc4ccccc4)cc3)c3c(N)ncnc32)C1 (stereo not drawn)

>  <MEASURED>
83.6

$$$$
